Each recorded value in this set is attributed to paper PMC10397247.

Target: T1, 4H967-bN
T1 chain: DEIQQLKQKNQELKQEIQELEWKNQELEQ
Experiment: two-hybrid library CCNG1;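 note: natural log of median RNA to DNA barcode read ratio; higher means stronger binding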
Threshold-based label: interaction score under -0.5 gives Met, interaction score not under -0.5 gives Not met.

A record lists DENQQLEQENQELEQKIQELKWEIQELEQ [4H1193-bN] . Is its interaction score below -0.5?
Met

Record DKIQQLKQEIQELEQKNQELEWEIQELKQ [4H2610-bN] : is its interaction score strictly below -0.5?
Met

Answer whether the binder DEIQQLKQKNQELEQEIQELKWENQELKQ [4H908-bN] has interaction score strictly less than -0.5
Not met

interaction score under -0.5? Item: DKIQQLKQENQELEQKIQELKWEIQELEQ [4H2729-bN]
Met

Strictly below -0.5 in interaction score? DKNQQLEQKIQELEQENQELKWEIQELKQ [4H3354-bN]
Met

Take the binder DEIQQLEQKNQELKQEIQELEWKIQELKQ [4H454-bN] and say whether its interaction score is less than -0.5.
Not met

Would you kindly verify if interaction score of DKIAQLKQENAELKQEIAELEWKNAQLKQ [4H2760-bA] is strictly less than -0.5?
Met

Does DEIQQLKQENQELEQKIQELKWKNQELEQ [4H687-bN] have interaction score strictly under -0.5?
Not met

Does the reported interaction score of DKNQQLKQENQELKQEIQELEWKIQELKQ [4H3782-bN] stay below -0.5?
Not met

Does this binder meet the criterion interaction score < -0.5? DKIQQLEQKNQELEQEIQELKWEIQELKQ [4H2442-bN]
Met

Record DKNQQLKQKNQELEQKIQELEWEIQELEQ [4H4001-bN] : is its interaction score strictly below -0.5?
Met

Please indicate whether the reported interaction score of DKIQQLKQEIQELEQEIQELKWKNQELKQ [4H2576-bN] is strictly below -0.5.
Met

Is the reported interaction score for DEIQQLKQKNQELEQKNQELKWEIQELEQ [4H953-bN] strictly below -0.5?
Met
